B1: glmS ribozyme (parent)
chain: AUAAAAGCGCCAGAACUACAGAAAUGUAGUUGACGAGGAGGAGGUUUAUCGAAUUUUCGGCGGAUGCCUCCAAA

variants of: B1; experiment: self-cleavage kobs at 10000 uM GlcN6P; higher = faster cleavage; RNA array; settings: with glucosamine-6-phosphate
Fewer inactive variants are shown than the library holds.
Response key: T means self-cleavage kobs at 10000 uM GlcN6P >= 0.0005 s⁻¹; F means self-cleavage kobs at 10000 uM GlcN6P < 0.0005 s⁻¹.

Hi, just wondering whether U47A G66U shows self-cleavage kobs at 10000 uM GlcN6P of 0.0005 s⁻¹ or higher. T

Hi, just wondering whether A39G A64C shows self-cleavage kobs at 10000 uM GlcN6P of 0.0005 s⁻¹ or higher. F

Hi, just wondering whether U57C G59U C61U shows self-cleavage kobs at 10000 uM GlcN6P of 0.0005 s⁻¹ or higher. F

Hi, just wondering whether A64G C70G shows self-cleavage kobs at 10000 uM GlcN6P of 0.0005 s⁻¹ or higher. F

Hi, just wondering whether G29A U31C U54G shows self-cleavage kobs at 10000 uM GlcN6P of 0.0005 s⁻¹ or higher. F

Hi, just wondering whether G41U G51U A53C shows self-cleavage kobs at 10000 uM GlcN6P of 0.0005 s⁻¹ or higher. F

Hi, just wondering whether U46A A53U shows self-cleavage kobs at 10000 uM GlcN6P of 0.0005 s⁻¹ or higher. T

Hi, just wondering whether G40A C58U C67G C71G shows self-cleavage kobs at 10000 uM GlcN6P of 0.0005 s⁻¹ or higher. F

Hi, just wondering whether A6U U45G shows self-cleavage kobs at 10000 uM GlcN6P of 0.0005 s⁻¹ or higher. F

Hi, just wondering whether U31C U55A shows self-cleavage kobs at 10000 uM GlcN6P of 0.0005 s⁻¹ or higher. T

Hi, just wondering whether G40C U55C shows self-cleavage kobs at 10000 uM GlcN6P of 0.0005 s⁻¹ or higher. F
